Assay: Clearance in rat hepatocytes assessed per million cells
Assay type: ADME, cell-based, Hepatocyte
Conditions: read-out: CLH
Could you please report measured hepatocyte CLint for the items listed next?
One number for each entry, in µL/min/1e6 cells.

Solved cases (2 shown):
# Smiles structure, Unit of measure, hepatocyte CLint
data = [
    ("CC1(CO/C(C(=O)Nc2cccc(Cl)c2)=C(/C=N)N2CCN(S(=O)(=O)NCc3ccc(N)c(F)c3)CC2)CC1", "µL/min/1e6 cells", 12.7),
    ("COc1ccc(CNS(=O)(=O)N2CCN(/C(C=N)=C(\\OCC3(C)CC3)C(=O)Nc3cccc(Cl)c3)CC2)cc1N", "µL/min/1e6 cells", 15),
]

Moving on to another molecule below.
What value of hepatocyte CLint has been recorded for this entry: "COc1cc(CNS(=O)(=O)N2CCN(/C(C=N)=C(\OCC3(C)CC3)C(=O)Nc3cccc(Cl)c3)CC2)ccc1N"
12.6

###

System: Candida albicans
Assay: Antifungal activity against Candida albicans C375 by broth dilution method
Assay type: functional
Conditions: read-out: MIC100
Reported property: MIC (µg/mL)
Numbers only, in µg/mL.

Solved cases (3 shown):
# Molecule, Experimental target, Reported property, Unit of measure, Experimental value
data = [
    ("Cc1ccc(CNS(=O)(=O)N2CCN(/C(C=N)=C(\\OCC3(C)CC3)C(=O)Nc3cccc(Cl)c3)CC2)cc1N", "Candida albicans", "MIC", "µg/mL", 2.08),
    ("CC(NS(=O)(=O)N1CCN(/C(C=N)=C(\\OCC2(C)CC2)C(=O)Nc2cccc(Cl)c2)CC1)c1cccc(N)c1 (stereo not drawn)", "Candida albicans", "MIC", "µg/mL", 8.35),
    ("COc1cc(CNS(=O)(=O)N2CCN(/C(C=N)=C(\\OCC3(C)CC3)C(=O)Nc3cccc(Cl)c3)CC2)ccc1N", "Candida albicans", "MIC", "µg/mL", 4.17),
]

Parameters: items (list). Returns: MIC for each item.
1. Cc1cc(CNS(=O)(=O)N2CCN(/C(C=N)=C(\OCC3(C)CC3)C(=O)Nc3cccc(Cl)c3)CC2)ccc1N
2. COc1ccc(CNS(=O)(=O)N2CCN(/C(C=N)=C(\OCC3(C)CC3)C(=O)Nc3cccc(Cl)c3)CC2)cc1N
3. CC1(CO/C(C(=O)Nc2cccc(Cl)c2)=C(/C=N)N2CCN(S(=O)(=O)NCc3ccc(F)c(N)c3)CC2)CC1
4. CC1(CO/C(C(=O)Nc2cccc(Cl)c2)=C(/C=N)N2CCN(S(=O)(=O)NCc3ccc(N)c(F)c3)CC2)CC1

1. 2.08
2. 4.17
3. 4.17
4. 0.52

###

Tested on: Nakaseomyces glabratus
Test: Antifungal activity against Candida glabrata C624 by broth dilution method
Format: functional
Conditions: read-out: MIC100
Strictly below 0.5 µg/mL in MIC: YES. Otherwise: NO.

# Compound, Experimental target, Discrete label
records = [
    ("CC(NS(=O)(=O)N1CCN(/C(C=N)=C(\\OCC2(C)CC2)C(=O)Nc2cccc(Cl)c2)CC1)c1cccc(N)c1 (stereo not drawn)", "Nakaseomyces glabratus", "NO"),
    ("Cc1ccc(CNS(=O)(=O)N2CCN(/C(C=N)=C(\\OCC3(C)CC3)C(=O)Nc3cccc(Cl)c3)CC2)cc1N", "Nakaseomyces glabratus", "YES"),
    ("Cc1nc2ccc(CNS(=O)(=O)N3CCN(/C(C=N)=C(\\OCC4(C)CC4)C(=O)Nc4cccc(Cl)c4)CC3)cc2s1", "Nakaseomyces glabratus", "YES"),
    ("CN(C)S(=O)(=O)N1CCN(/C(C=N)=C(\\OC2CCCC2)C(=O)Nc2cccc(Cl)c2)CC1", "Nakaseomyces glabratus", "YES"),
    ("CC1(CO/C(C(=O)Nc2cccc(Cl)c2)=C(/C=N)N2CCN(S(=O)(=O)NCc3nc4cc(Cl)ccc4o3)CC2)CC1", "Nakaseomyces glabratus", "NO"),
    ("CC1(CO/C(C(=O)Nc2cccc(Cl)c2)=C(/C=N)N2CCN(S(=O)(=O)NCc3ccncc3)CC2)CC1", "Nakaseomyces glabratus", "NO"),
    ("CC1(CO/C(C(=O)Nc2cccc(Cl)c2)=C(/C=N)N2CCN(S(=O)(=O)NCc3ccnc(N)c3)CC2)CC1", "Nakaseomyces glabratus", "NO"),
]

Then there is this compound:
Is MIC of "CC1(CO/C(C(=O)Nc2cccc(Cl)c2)=C(/C=N)N2CCN(S(=O)(=O)NCc3nc4ccccc4s3)CC2)CC1" strictly below 0.5 µg/mL?
YES
